# test-method-notes: Lysosomal sequestration studies in NR8383 with NH4Cl, monensin and nigericin
# stated-conditions: rat, Kp Control, NR8383, 20 µM drug, control
Reported values of Kp at 10 min, 20 µM for individual entries
observation-type: Kp at 10 min, 20 µM

INSERT INTO results (compound, observation_type, measured) VALUES
  ('CC(Cc1ccc(O)cc1)NCC(O)c1cc(O)cc(O)c1 (centres unmarked)', 'Kp at 10 min, 20 µM', 1.5),
  ('COc1ccc(CC(C)NCC(O)c2ccc(O)c(NC=O)c2)cc1 (centres unmarked)', 'Kp at 10 min, 20 µM', 26.5);

---

# test-method-notes: Drug uptake in NR8383 at 37 and 4°C (CLuptake, CLdiff, Kp)
# stated-conditions: rat, other cell line
observation-type: hepatocyte CLint at 5 μM

INSERT INTO assay_data (molecule, measured) VALUES
  ('CC(Cc1ccc(O)cc1)NCC(O)c1cc(O)cc(O)c1 (stereo not shown)', '< 1 µL/min/1e6 cells');

---

# test-method-notes: Uptake kinetics of clarithromycin in NR8383, two-step method
# Assay type: in vitro ADME, rat
# stated-conditions: rat, incubation media of NR8383 cells; NR8383 incubation media; read-out: fraction unbound in the media (fumed)
observation-type: fraction unbound

INSERT INTO results (compound, observation_type, measured) VALUES
  ('CC[C@H]1OC(=O)[C@H](C)[C@@H](O[C@H]2C[C@@](C)(OC)[C@@H](O)[C@H](C)O2)[C@H](C)[C@@H](O[C@@H]2O[C@H](C)C[C@H](N(C)C)[C@H]2O)[C@](C)(OC)C[C@@H](C)C(=O)[C@H](C)[C@@H](O)[C@]1(C)O [Clarithromycin]', 'fraction unbound', 0.93);
